# credit: patent US20240279318A1

# koff annotations
Molecular target: T1, AFP158/HLA-A*02:01 complex (human)
T1 construct: flowed as analyte in SPR
Test: SPR, crude scFv captured, pMHC analyte;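 also: Peptide-MHC complex at several concentrations passed over captured scFv, association then buffer-driven dissociation, on- and off-rates fitted from the curves and KD estimated from them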
Answer format: numeric, s⁻¹ implied, no suffix.

binder	unit.string	koff
AS170036 VL1VH1-VHG56F (scFv) scFv: QSALTQPRSVSGSPGQSVTISCAGTSSDVGSENYVSWYQQHPGKAPKLMIYQVNKRASGVPDRFSGSKSGNTASLTISGLQAEDEADYYCASYRSSDHNIVFGGGTKLTVLGGGGSGGGGSGGGGSEVQLVESGGGLVQPGGSLRLSCAASGFTFSSYAMSWVRQAPGKGLEWVSTINSGTFSPYYADSVKGRFTISRDNSKNTLYLQMNSLRAEDTAVYYCAKNFFDGSWFLGPPAMDYWGQGTLVTVSSHHHHHH	s⁻¹	0.022

Pending binder:
Requested field: koff. Item: AS170036 VL1VH1-VLE32W (scFv) scFv: QSALTQPRSVSGSPGQSVTISCAGTSSDVGSWNYVSWYQQHPGKAPKLMIYQVNKRASGVPDRFSGSKSGNTASLTISGLQAEDEADYYCASYRSSDHNIVFGGGTKLTVLGGGGSGGGGSGGGGSEVQLVESGGGLVQPGGSLRLSCAASGFTFSSYAMSWVRQAPGKGLEWVSTINSGTGSPYYADSVKGRFTISRDNSKNTLYLQMNSLRAEDTAVYYCAKNFFDGSWFLGPPAMDYWGQGTLVTVSSHHHHHH
0.016
